Assay: Lipophilicity, log D of the compound at pH 7.4 by chromatography
Assay type: physicochemical
Settings: buffer
Measured Metric: chromatographic logD

Compound	chromatographic logD
O=C(c1ccoc1)N1CCN2C(=O)c3ccncc3[C@]12c1ccc(Cl)cc1	2.5
O=C(c1ccc(F)nc1)N1CCN2C(=O)c3ccncc3[C@]12c1ccc(Cl)cc1	2.7
Cn1cc(C(=O)N2CCN3C(=O)c4ccncc4[C@@]32c2ccc(Cl)cc2)c(C(F)(F)F)n1	3
O=C(c1cccnc1)N1CCN2C(=O)c3ccncc3[C@]12c1ccc(Cl)cc1 [BTA-9881]	2.1
O=C(c1ccco1)N1CCN2C(=O)c3ccncc3C12c1ccc(Cl)cc1 (racemic)	2.8
